SUBJECT OF TEST: ZFPL1 (UniProt O95159)
Sequence (O95159 whole entry, looked up): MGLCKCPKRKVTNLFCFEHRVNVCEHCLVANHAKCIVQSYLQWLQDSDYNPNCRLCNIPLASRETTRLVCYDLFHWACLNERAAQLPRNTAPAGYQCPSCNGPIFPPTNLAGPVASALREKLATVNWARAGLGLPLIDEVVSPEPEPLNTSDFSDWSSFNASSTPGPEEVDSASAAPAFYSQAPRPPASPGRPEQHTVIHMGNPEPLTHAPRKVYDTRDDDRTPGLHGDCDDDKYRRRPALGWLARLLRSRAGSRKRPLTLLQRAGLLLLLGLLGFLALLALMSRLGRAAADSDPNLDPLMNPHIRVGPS
TEST SUMMARY: log2 fold change, soluble protein after heating vs DMSO (PISA); higher = thermal stabilisation; K562 cells, 10 uM, 30 min; active = over 0.2 and 3.5 SD of the protein, either way, in both replicates (recomputed)
Targets with a hit are over-represented here; the source holds about 7,900 in all. About 0.6% of all pairs of compound and target were hits.
The entries below come with measured log2 fold change values attached.
REPORTED PROPERTY: log2 fold change

• CNCc1ccc(-c2[nH]c3cc(F)cc4c3c2CCNC4=O)cc1 = 0.021
• C[C@@H](Oc1cc(-c2cnn(C3CCNCC3)c2)cnc1N)c1c(Cl)ccc(F)c1Cl = 0.107
• c1cn2cc(-c3ccc4cn[nH]c4c3)nc(Nc3ccc(N4CCOCC4)cc3)c2n1 = 0.034
• Cc1cc(Nc2cc(N3CCN(C)CC3)nc(Sc3ccc(NC(=O)C4CC4)cc3)n2)n[nH]1 = 0.009
• CCN(CC)Cc1ccc2cc(COC(=O)Nc3ccc(C(=O)NO)cc3)ccc2c1 = -0.09
• Cc1ccc(NC(=O)c2cccc(N(C)C)c2)cc1NC(=O)c1ccc(O)cc1 = 0.094
• O=C(CCCCCCNC(=O)c1cnc(N(c2ccccc2)c2ccccc2Cl)nc1)NO = 0.046
• Cc1ccc(Sc2cncc3sc(C(N)=O)cc23)cc1 = 0.008

* * *

SUBJECT OF TEST: ZNF217 (UniProt O75362)
Sequence (O75362 whole entry, looked up): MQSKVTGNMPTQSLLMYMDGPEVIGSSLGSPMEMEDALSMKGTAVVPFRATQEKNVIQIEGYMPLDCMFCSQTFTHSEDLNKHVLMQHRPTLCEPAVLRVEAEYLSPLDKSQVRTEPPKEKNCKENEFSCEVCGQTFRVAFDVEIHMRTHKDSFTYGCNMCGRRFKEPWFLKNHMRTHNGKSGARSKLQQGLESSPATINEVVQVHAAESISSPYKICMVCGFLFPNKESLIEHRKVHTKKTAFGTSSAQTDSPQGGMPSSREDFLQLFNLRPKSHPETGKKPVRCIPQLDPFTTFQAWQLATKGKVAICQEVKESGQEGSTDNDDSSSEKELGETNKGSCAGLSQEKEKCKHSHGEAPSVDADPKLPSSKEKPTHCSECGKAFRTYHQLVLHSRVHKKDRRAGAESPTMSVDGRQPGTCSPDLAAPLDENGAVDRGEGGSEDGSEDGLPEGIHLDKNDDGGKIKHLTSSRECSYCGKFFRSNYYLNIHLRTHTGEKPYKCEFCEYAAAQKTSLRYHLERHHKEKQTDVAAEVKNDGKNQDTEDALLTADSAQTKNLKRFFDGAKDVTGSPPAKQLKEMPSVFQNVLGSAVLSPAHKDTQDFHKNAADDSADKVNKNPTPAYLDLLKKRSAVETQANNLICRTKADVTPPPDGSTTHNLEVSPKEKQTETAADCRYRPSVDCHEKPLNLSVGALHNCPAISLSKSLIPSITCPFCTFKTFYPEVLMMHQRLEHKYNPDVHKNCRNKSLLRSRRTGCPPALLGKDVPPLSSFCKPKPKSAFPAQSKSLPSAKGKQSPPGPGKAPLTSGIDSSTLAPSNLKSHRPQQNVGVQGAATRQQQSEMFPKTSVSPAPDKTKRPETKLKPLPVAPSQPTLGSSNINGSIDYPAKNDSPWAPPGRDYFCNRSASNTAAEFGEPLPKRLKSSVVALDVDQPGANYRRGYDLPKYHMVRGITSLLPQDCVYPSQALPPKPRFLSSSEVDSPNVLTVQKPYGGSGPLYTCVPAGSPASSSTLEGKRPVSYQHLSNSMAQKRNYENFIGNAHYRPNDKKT
TEST SUMMARY: log2 fold change, soluble protein after heating vs DMSO (PISA); higher = thermal stabilisation; K562 cells, 10 uM, 30 min; active = over 0.2 and 3.5 SD of the protein, either way, in both replicates (recomputed)
About 7,900 targets were measured; listed, in parts, are those with a hit and a random draw of the rest. About 0.6% of all pairs of compound and target were hits.
REPORTED PROPERTY: log2 fold change

* Oc1cc(-c2nc(-c3ccccc3)[nH]c2-c2ccncc2)ccc1Cl | -0.014
* O=C(Nc1cccc(Nc2ncc(Br)c(NCCc3cnc[nH]3)n2)c1)N1CCCC1 | 0.01
* CN1CCc2c(c3ccccc3n2Cc2ccc(C(=O)NO)cc2)C1 [Tubastatin A] | -0.086
* O=C(Nc1nc2ccccc2n1CCN1CCOCC1)c1cccc([N+](=O)[O-])c1 [IRAK-1-4 Inhibitor I] | 0.052
* CN1CC[C@H](c2c(O)cc(O)c3c(=O)cc(-c4ccccc4Cl)oc23)[C@H](O)C1 [alvocidib] | -0.164
* Cc1cc(Nc2cc(CN3CCOCC3)c3nc(C)c(Cc4ccc(Cl)cc4F)n3n2)n[nH]1 [gandotinib] | -0.098
* Cc1cn(-c2cc(NC(=O)c3ccc(C)c(Nc4nccc(-c5cccnc5)n4)c3)cc(C(F)(F)F)c2)cn1 [nilotinib] | -0.082

* * *

SUBJECT OF TEST: ZNF622 (UniProt Q969S3)
Sequence (Q969S3 whole entry, looked up): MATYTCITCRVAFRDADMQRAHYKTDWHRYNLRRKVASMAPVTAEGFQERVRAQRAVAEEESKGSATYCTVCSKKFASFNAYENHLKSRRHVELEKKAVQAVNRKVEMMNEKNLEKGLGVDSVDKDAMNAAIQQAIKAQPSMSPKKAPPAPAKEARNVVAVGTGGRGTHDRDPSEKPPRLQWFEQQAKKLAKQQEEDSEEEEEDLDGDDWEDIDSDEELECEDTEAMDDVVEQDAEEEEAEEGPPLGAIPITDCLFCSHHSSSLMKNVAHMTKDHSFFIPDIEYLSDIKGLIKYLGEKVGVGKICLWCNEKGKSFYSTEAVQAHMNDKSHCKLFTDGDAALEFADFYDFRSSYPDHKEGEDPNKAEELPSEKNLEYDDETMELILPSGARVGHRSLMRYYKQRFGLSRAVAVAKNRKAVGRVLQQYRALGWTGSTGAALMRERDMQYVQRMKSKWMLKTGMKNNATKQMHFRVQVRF
TEST SUMMARY: log2 fold change, soluble protein after heating vs DMSO (PISA); higher = thermal stabilisation; K562 cells, 10 uM, 30 min; active = over 0.2 and 3.5 SD of the protein, either way, in both replicates (recomputed)
Targets with a hit are over-represented here; the source holds about 7,900 in all. About 0.6% of all pairs of compound and target were hits.
log2 fold change: recorded values
REPORTED PROPERTY: log2 fold change

- c1cc(OCCN2CCCCC2)cc(-c2n[nH]c3ccc(-c4nnc[nH]4)cc23)c1: 0.092
- CC(=O)c1cnc2ccc(-c3cc(Cl)c(O)c(Cl)c3)nc2c1N[C@H]1CC[C@H](CN(C)C)CC1: 0.096
- COc1ccc(Cn2ccc3ccc(C(=O)NO)cc32)cc1: -0.033
- CC[C@H](C)n1cc(C)c2c(C(=O)NCc3c(C)cc(C)[nH]c3=O)cc(-c3ccc(N4CCNCC4)nc3)cc21: -0.012
- CN1CCc2c(c3ccccc3n2Cc2ccc(C(=O)NO)cc2)C1: 0.018

* * *

SUBJECT OF TEST: ZBTB21 (UniProt Q9ULJ3)
Sequence (Q9ULJ3 whole entry, looked up): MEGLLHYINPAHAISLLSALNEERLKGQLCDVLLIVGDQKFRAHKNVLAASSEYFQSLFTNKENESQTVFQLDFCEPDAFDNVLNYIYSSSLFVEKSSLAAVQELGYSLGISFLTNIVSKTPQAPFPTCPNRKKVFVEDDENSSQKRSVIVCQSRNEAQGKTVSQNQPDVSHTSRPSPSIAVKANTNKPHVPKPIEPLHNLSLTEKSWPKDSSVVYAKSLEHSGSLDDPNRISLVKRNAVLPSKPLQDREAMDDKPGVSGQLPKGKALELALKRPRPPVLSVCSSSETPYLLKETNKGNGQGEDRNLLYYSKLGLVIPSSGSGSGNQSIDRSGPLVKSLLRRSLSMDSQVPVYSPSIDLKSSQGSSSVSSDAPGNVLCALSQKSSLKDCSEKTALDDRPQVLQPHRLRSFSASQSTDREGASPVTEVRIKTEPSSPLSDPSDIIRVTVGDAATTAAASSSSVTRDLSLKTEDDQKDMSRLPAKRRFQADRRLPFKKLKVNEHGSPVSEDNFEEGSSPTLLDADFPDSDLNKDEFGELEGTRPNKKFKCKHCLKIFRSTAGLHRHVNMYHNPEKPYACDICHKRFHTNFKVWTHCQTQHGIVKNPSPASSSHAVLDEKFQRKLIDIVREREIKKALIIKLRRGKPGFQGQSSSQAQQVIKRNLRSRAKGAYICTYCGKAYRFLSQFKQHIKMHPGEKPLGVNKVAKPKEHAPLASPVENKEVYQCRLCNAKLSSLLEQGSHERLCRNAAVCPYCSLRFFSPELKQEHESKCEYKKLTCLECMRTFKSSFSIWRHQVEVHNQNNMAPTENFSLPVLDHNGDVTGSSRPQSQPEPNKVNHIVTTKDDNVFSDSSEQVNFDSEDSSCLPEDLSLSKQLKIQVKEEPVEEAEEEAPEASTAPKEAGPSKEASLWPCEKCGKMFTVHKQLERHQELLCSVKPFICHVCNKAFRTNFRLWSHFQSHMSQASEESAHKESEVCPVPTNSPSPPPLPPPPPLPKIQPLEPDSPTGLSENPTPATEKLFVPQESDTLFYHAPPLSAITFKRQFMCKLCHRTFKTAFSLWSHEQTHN
TEST SUMMARY: log2 fold change, soluble protein after heating vs DMSO (PISA); higher = thermal stabilisation; K562 cells, 10 uM, 30 min; active = over 0.2 and 3.5 SD of the protein, either way, in both replicates (recomputed)
Targets with a hit are over-represented here; the source holds about 7,900 in all. About 0.6% of all pairs of compound and target were hits.
Entries and their log2 fold change
REPORTED PROPERTY: log2 fold change

- O=C(O)c1ccc2c(c1)nc(Nc1cccc(Cl)c1)c1ccncc12: 0.104
- Cc1ccc(C(=O)N(CCCN)[C@@H](c2nc3cc(Cl)ccc3c(=O)n2Cc2ccccc2)C(C)C)cc1: -0.09
- Fc1ccc(Cl)cc1-c1nc(Nc2ccncc2)c2nccnc2n1: -0.022
- Oc1cc(-c2nc(-c3ccccc3)[nH]c2-c2ccncc2)ccc1Cl: -0.067
- COc1cc(Nc2ncc3c(n2)-c2ccc(Cl)cc2C(c2c(F)cccc2OC)=NC3)ccc1C(=O)O: -0.154
- O=C1NC(=O)C(c2cnc3ccccn23)=C1c1cn2c3c(cc(F)cc13)CN(C(=O)N1CCCCC1)CC2: -0.226
- CCCCN(Cc1ccc(C(=O)NO)cc1)C(=O)Nc1ccccc1: 0.106
- Cn1cc(-c2ccc3c(c2)CCN3C(=O)Cc2cccc(C(F)(F)F)c2)c2c(N)ncnc21: 0.122
- FC(F)(F)c1ccc(/C=C/c2nc(COc3ccc(CCCCn4ccnn4)cc3)co2)cc1: 0.003

* * *

SUBJECT OF TEST: YPEL5 (UniProt P62699)
Sequence (P62699 whole entry, looked up): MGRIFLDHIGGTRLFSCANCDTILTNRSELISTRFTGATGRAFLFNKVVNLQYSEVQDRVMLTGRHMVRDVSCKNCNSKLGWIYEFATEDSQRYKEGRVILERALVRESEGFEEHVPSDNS
TEST SUMMARY: log2 fold change, soluble protein after heating vs DMSO (PISA); higher = thermal stabilisation; K562 cells, 10 uM, 30 min; active = over 0.2 and 3.5 SD of the protein, either way, in both replicates (recomputed)
About 7,900 targets were measured; listed, in parts, are those with a hit and a random draw of the rest. About 0.6% of all pairs of compound and target were hits.
Each entry below carries its recorded log2 fold change.
REPORTED PROPERTY: log2 fold change

* CCCS(=O)(=O)Nc1ccc(F)c(C(=O)c2c[nH]c3ncc(-c4ccc(Cl)cc4)cc23)c1F [vemurafenib] | -0.068
* CCN(CC)Cc1ccc2cc(COC(=O)Nc3ccc(C(=O)NO)cc3)ccc2c1 [givinostat] | -0.009
* O=C1NC(=O)C(c2cnc3ccccn23)=C1c1cn2c3c(cc(F)cc13)CN(C(=O)N1CCCCC1)CC2 | -0.064
* Cn1cc(-c2ccc3nnc(C(F)(F)c4ccc5ncccc5c4)n3n2)cn1 | -0.071
* C[C@@H]1COCCN1c1cc(C2(S(C)(=O)=O)CC2)nc(-c2cccc3[nH]ccc23)n1 | -0.079
* CCn1c(C(=O)N(C2CC2)C2CC2)cc2c3c(ncn3C)c(Nc3cc(C)n(C)n3)nc21 | 0.027
* O=C(O)c1ccc2c(c1)nc(Nc1cccc(Cl)c1)c1ccncc12 [silmitasertib] | 0.116
* O=C1NC(=NCc2cccs2)S/C1=C\c1ccc2ncccc2c1 | -0.021
* CC[C@H](C)n1cc(C)c2c(C(=O)NCc3c(C)cc(C)[nH]c3=O)cc(-c3ccc(N4CCNCC4)nc3)cc21 | 0.109
* CS(=O)(=O)CCNCc1ccc(-c2ccc3ncnc(Nc4ccc(OCc5cccc(F)c5)c(Cl)c4)c3c2)o1 [lapatinib] | -0.113
* Oc1cc(-c2nc(-c3ccccc3)[nH]c2-c2ccncc2)ccc1Cl | 0.213
* CC(=O)c1cnc2ccc(-c3cc(Cl)c(O)c(Cl)c3)nc2c1N[C@H]1CC[C@H](CN(C)C)CC1 | -0.173
* CN(C)CC(=O)Nc1ccc2[nH]c(=O)c3ccccc3c2c1 | 0.008
* COC(=O)N[C@@H](C)CNc1nccc(-c2cn(C(C)C)nc2-c2cc(Cl)cc(NS(C)(=O)=O)c2F)n1 [encorafenib] | -0.001
* CN1CC[C@H](c2c(O)cc(O)c3c(=O)cc(-c4ccccc4Cl)oc23)[C@H](O)C1 [alvocidib] | -0.234
* Cc1cccc(CC(=O)N2CCc3c2ccc(-c2cn(C)c4ncnc(N)c24)c3F)n1 | 0.198
* Cc1cc(Nc2cc(CN3CCOCC3)c3nc(C)c(Cc4ccc(Cl)cc4F)n3n2)n[nH]1 [gandotinib] | -0.095
* c1cc(OCCN2CCCCC2)cc(-c2n[nH]c3ccc(-c4nnc[nH]4)cc23)c1 | 0.067
* CS(=O)(=O)c1ccc(-c2cnc(N)c(C(=O)Nc3ccccc3)n2)cc1 | 0.152
* Nc1ccccc1NC(=O)c1ccc(CNC(=O)OCc2cccnc2)cc1 [entinostat] | -0.187
* O=C(CCCCCCNC(=O)c1cnc(N(c2ccccc2)c2ccccc2Cl)nc1)NO [citarinostat] | -0.077
* C[C@H](Nc1ncnc2nc[nH]c12)c1cc2cccc(Cl)c2c(=O)n1-c1ccccc1 [duvelisib] | -0.084
* CNC(=O)c1ccc(Nc2ncc(C(F)(F)F)c(NCc3nccnc3N(C)S(C)(=O)=O)n2)cc1 [defactinib] | -0.073
